Molecular target: DR4w4 (DRB1*0401) (Homo sapiens, UniProt P01903+P01911, A100K/A169T/F76Y/I96L/K127E/L162R/M171V/N62H/P40V/Q125Y/R42H/S133A/S149N/S66Y/V115G/V209L/W38E)
Assay: biochemical
Format: binding
propertyName: log10 of IC50 (log10 of the value in nM)

[[record]]
molecule = "CC[C@H](C)[C@H](NC(=O)CNC(=O)[C@H](CCC(=O)O)NC(=O)[C@H](Cc1c[nH]cn1)NC(=O)[C@@H](NC(=O)[C@H](Cc1ccc(O)cc1)NC(=O)[C@H](Cc1ccc(O)cc1)NC(=O)[C@H](CC(C)C)NC(=O)CN)C(C)C)C(=O)N[C@@H](CCCNC(=N)N)C(=O)N[C@H](C(=O)N[C@@H](Cc1ccc(O)cc1)C(=O)N[C@@H](Cc1ccccc1)C(=O)N[C@H](C(=O)N[C@@H](CCC(N)=O)C(=O)O)C(C)C)[C@@H](C)O [Peptide 90.0171]"
propertyname = "log10 of IC50"
value = 2.82

[[record]]
molecule = "CSCC[C@H](NC(=O)[C@H](Cc1ccc(O)cc1)NC(=O)[C@H](Cc1ccc(O)cc1)NC(=O)[C@@H](NC(=O)[C@H](CO)NC(=O)[C@H](CC(=O)O)NC(=O)[C@H](Cc1c[nH]c2ccccc12)NC(=O)[C@H](C)NC(=O)[C@@H](N)C(C)C)C(C)C)C(=O)N[C@H](C(=O)N[C@@H](CC(=O)O)C(=O)N[C@@H](C)C(=O)NCC(=O)N[C@H](C(=O)N[C@@H](Cc1c[nH]c2ccccc12)C(=O)O)[C@@H](C)O)[C@@H](C)O [Peptide 1601.10]"
propertyname = "log10 of IC50"
value = 3.22

[[record]]
molecule = "CC[C@H](C)[C@H](NC(=O)[C@H](C)NC(=O)[C@H](CCCCN)NC(=O)[C@@H](N)Cc1c[nH]cn1)C(=O)N[C@@H](CCC(=O)O)C(=O)N[C@@H](CC(C)C)C(=O)N[C@@H](CCC(N)=O)C(=O)N[C@@H](CCSC)C(=O)N[C@@H](C)C(=O)N[C@@H](CC(C)C)C(=O)N[C@@H](CCC(N)=O)C(=O)NCC(=O)N[C@@H](CC(C)C)C(=O)N[C@@H](C)C(=O)N[C@@H](CCC(N)=O)C(=O)O [Peptide 89.0160]"
propertyname = "log10 of IC50"
value = 2.54

[[record]]
molecule = "CC(C)C[C@H](NC(=O)[C@H](CCC(N)=O)NC(=O)[C@H](CCCCN)NC(=O)[C@@H](NC(=O)[C@H](CC(C)C)NC(=O)[C@H](CCC(N)=O)NC(=O)[C@@H](NC(=O)[C@H](C)NC(=O)[C@H](CO)NC(=O)[C@@H](NC(=O)[C@@H](NC(=O)[C@H](CC(=O)O)NC(=O)[C@H](CC(=O)O)NC(=O)[C@@H](N)CO)[C@@H](C)O)C(C)C)[C@@H](C)O)C(C)C)C(=O)N[C@@H](CCC(N)=O)C(=O)O [Peptide 1601.13]"
propertyname = "log10 of IC50"
value = 3.98

[[record]]
molecule = "CC(C)C[C@H](NC(=O)[C@H](CC(=O)O)NC(=O)[C@@H](NC(=O)[C@@H](NC(=O)[C@H](CCC(=O)O)NC(=O)[C@@H]1CCCN1C(=O)[C@H](CCC(N)=O)NC(=O)[C@H](CC(C)C)NC(=O)[C@H](CC(=O)O)NC(=O)[C@@H](N)CC(C)C)[C@@H](C)O)[C@@H](C)O)C(=O)N[C@@H](Cc1ccc(O)cc1)C(=O)N[C@@H](CS)C(=O)N[C@@H](Cc1ccc(O)cc1)C(=O)N[C@@H](CCC(=O)O)C(=O)N[C@@H](CCC(N)=O)C(=O)O [Peptide 1543.04]"
propertyname = "log10 of IC50"
value = 3.28

